Tgt: T1, APC232-AA
T1 chain: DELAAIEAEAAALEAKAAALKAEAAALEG
Measurement notes: two-hybrid library CCmax;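 also: natural log of median RNA to DNA barcode read ratio; higher means stronger binding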
Condition notes: mean of both orientations
// reported interaction score per item
Measurement type: interaction score

DKLAAIKAELAAIEAKLAAIKAKNAALKG [APC1015-AA]    0.0398
DKLAAIKAENAALEAKAAALKAENAALEG [APC1434-AA]    -1.48
DKIAALEAEIAALKAKIAALEAENAALKG [4H2148-AA]    -1.38
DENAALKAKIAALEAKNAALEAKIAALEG [4H1845-AA]    -2.09
DKIAALEAEIAALKAENAALKAKNAALEG [4H2143-AA]    -2.06
DKIAALEAENAALKAKNAALEAEIAALKG [4H2290-AA]    -1.33
DEIAALKAENAALKAENAALKAKIAALEG [4H733-AA]    -1.82
DKIAALEAKNAALEAENAALKAEIAALKG [4H2458-AA]    -1.85
DEIAALKAKIAALEAKIAALEAKNAALEG [4H807-AA]    -1.73
DKIAALEAKNAALEAEIAALKAKNAALEG [4H2447-AA]    -1.82
DKNAALEAKIAALEAEIAALEAEIAALKG [4H3330-AA]    -1.1
DEIAALKAENAALKAEIAALKAENAALKG [4H716-AA]    -1.48
DEAAALEAEAAALEAKAAALKAKLAAEKG [APC2237-AA]    -1.19
